- Test system: HL-60(TB) leukemia
- PROTOCOL_DETAILS: NCI-60 one-dose screen, 48 h (100 = growth as untreated, 0 = no growth, -100 = all killed)
- CONDITIONS: 10 µM unless noted
- Description: Growth inhibition of the HL-60(TB) human tumor cell line is measured as a screen for anti-cancer activity. Cells are grown in 96 well plates and exposed to the test compound for 48 hours. Compounds are tested at a single concentration, which is 10^-5 M for most compounds. The reported endpoint is percent growth (GI% or GIPRCNT), where numbers from 0 - 100% represent growth inhibition, and numbers from -100% - 0 represent cell death. For example, a value of 40 represents 60% growth inhibition. […]
About 83,000 compounds went through this panel and 20% of them were active in at least one assay; those are over-represented in the sample as a whole.
Provide the reported growth of each item.
Write down the numeric answer in % and omit the unit.

Sample O=C1Nc2cc(-c3ccc(NC(=O)C4CC4)cc3)ccc2/C1=C/c1ccc[nH]1 — what was its growth?
100

Sample C#Cc1cc2c(N)c(C(=O)c3cc(OC)c(OC)c(OC)c3)[nH]c2cc1OC — what was its growth?
-6.26

Sample COc1ccc(CCN2CC=Cn3c2nc2ccccc2c3=O)cc1 — what was its growth?
-8.02

Sample O=C(Nc1ccc(F)c(Cl)c1)Nc1ccc(Cl)c(Cl)c1 — what was its growth?
25

Sample CCN1CCN(C(=O)[C@]23CC[C@@H](C)[C@H](C)[C@@H]2C2=CC[C@@H]4[C@@]5(C)C/C(=C/c6ccncc6)C(=O)C(C)(C)[C@@H]5CC[C@@]4(C)[C@]2(C)CC3)CC1 — what was its growth?
-33.1

Sample Cc1sc2nc(CSc3nnc(-c4ccco4)o3)[nH]c(=O)c2c1C — what was its growth?
68.6

Sample CCOC(=O)c1nn(C2CCCCO2)c2ccc(NS(=O)(=O)c3ccc(C)cc3)cc12 (stereo not given) — what was its growth?
97.6

Sample CC1=CC2c3oc(-c4ccccc4)c(C(=O)c4ccccc4)c3CNC2C=C1 (stereo not given) — what was its growth?
84.3

Sample Cc1cc(O[C@@H]2O[C@@H](C)[C@H](O)[C@@H](O)[C@H]2O)c2c3c(c(O[C@@H]4O[C@@H](C)[C@H](O)[C@@H](O)[C@H]4O)cc2c1)C(=O)c1c(O)cccc1C3=O — what was its growth?
64.9

Sample C[C@]12CCc3c(ccc4cc(O)ccc34)[C@@H]1CC[C@H]2O — what was its growth?
86.7

Sample CCCCCCCCCCC1CO1 (stereo not given) — what was its growth?
104

Sample Cc1cc(-c2ccc(N=Nc3c(C)nn(-c4ccc(S(=O)(=O)O)cc4)c3O)c(C)c2)ccc1N=Nc1ccc(O)c(C(=O)O)c1 — what was its growth?
99

Sample C=C(C)[C@@H]1CC[C@]2(C(=O)OC)CC[C@]3(C)[C@H](CC[C@@H]4[C@@]5(C)C/C(=C/c6cccc(I)c6)C(=O)C(C)(C)[C@@H]5CC[C@]43C)[C@@H]12 — what was its growth?
97.6

Sample CC1(C)N=C(N)N=C(N)N1c1ccc(CCCCc2ccc(Cl)cc2S(=O)(=O)F)c(Cl)c1 — what was its growth?
15.5

Sample COc1ccc(C/C(C)=C(\c2ccc(Cl)cc2)c2ccc(OCCN3CCCCC3)cc2)cc1 — what was its growth?
91.8

Sample Cc1cnc(Nc2ccc(OCCN3CCCC3)cc2)nc1Nc1cccc(S(=O)(=O)NC(C)(C)C)c1 — what was its growth?
-39.7

Sample Cc1cc2c(c(C)c1Cl)C(=O)/C(=C/c1ccc(O)c(O)c1)O2 — what was its growth?
108

Sample Oc1cc(O)c(Br)cc1Br — what was its growth?
104

Sample CC1=C([Se]CC(OC(=O)[C@@H](CO)NC(=O)OC(C)(C)C)C(=O)NCCCCCC(=O)OCc2ccccc2)C(=O)c2ccccc2C1=O (stereo not given in full) — what was its growth?
-32.9

Sample CC(C)(C)[Si](C)(C)OC1[C@@H](CNC(=O)NC(=O)CCl)O[C@@H](n2cnc3c(N)ncnc32)[C@H]1O[Si](C)(C)C(C)(C)C (stereo not given in full) — what was its growth?
-64.2

Sample CCOCCc1c(O)nc(SC)[nH]c1=O — what was its growth?
93.3

Sample CC(C)(C)n1cc(-c2ccnc(NCCNS(=O)(=O)c3ccc(F)cc3)c2)c(-c2cccc(O)c2)n1 — what was its growth?
46.6

Sample CCN(CC)CCSCCN(CC)CC — what was its growth?
100

Sample COc1ccc(C2=NN(C(N)=S)C(c3ccc4c(c3)OCO4)C2)cc1 (stereo not given) — what was its growth?
30.4

Sample CCCCCCn1c(-c2ccc(C(=O)O/N=C(\N)c3ccc(OC)cc3)cc2)nc(-c2ccccc2)c1-c1ccccc1 — what was its growth?
-58

Sample CCC(OC(=O)CC(C)C)c1ccccc1 (stereo not given) — what was its growth?
102

Sample Cc1nc(-c2ccccc2)cc2c(O)c(C(=O)NN)[nH]c(=O)c12 — what was its growth?
126

Sample NC(=S)NN=C1CCCC1 — what was its growth?
95.1

Sample Nc1n[nH]c2cc(F)c([C@@H]3Nc4c(F)cc5[nH]ncc5c4[C@H]4C5CCC(C5)[C@@H]34)cc12 (stereo not given in full) — what was its growth?
-30.1

Sample c1ccc(Cn2nc3c(c2-c2ccccc2)-c2oncc2CC3)cc1 — what was its growth?
92.2

Sample O=S(=O)(O)c1ccc2cc(O)ccc2c1 — what was its growth?
100

Sample Cc1c2cnccc2c(C)c2c1c1cc(C(=O)O)ccc1n2C — what was its growth?
5.27

Sample O=C1Nc2ccccc2/C1=C/c1cccs1 — what was its growth?
107

Sample CCC(C)(O)CCC(C)(O)CC (stereo not given) — what was its growth?
101

Sample CCN1C(=O)/C(=C/C=C/N(C)c2ccccc2)SC1=S — what was its growth?
78.2

Sample COc1cccc(-c2nn(C(C)(C)C)cc2-c2ccnc(NCCCNS(=O)(=O)c3cccc4ccccc34)c2)c1 — what was its growth?
104

Sample NC1=NC(=O)NC1(c1ccccc1)c1ccccc1 — what was its growth?
98.4

Sample CC(C)(C)OC(=O)CN1CCc2c(sc3ncnc(N4CCN(c5ccc(F)cc5)CC4)c23)C1 — what was its growth?
99.5

Sample Nc1ccccc1C#Cc1ccccc1C#Cc1ccc(OCCCCCCOc2ccc(C#Cc3ccccc3C#Cc3ccccc3N)cc2)cc1 — what was its growth?
110

Sample CNC(=S)NC(C)(C)C — what was its growth?
92.6
